target: Tyr705 of Stat3 (Homo sapiens); experiment: Inhibition of constitutive Stat3 Tyr705 phosphorylation in MDA-MB-468 cells; format: cell-based; conditions: MDA-MB-468, 2 h treatment, western blot
Sequence (P40763 whole entry): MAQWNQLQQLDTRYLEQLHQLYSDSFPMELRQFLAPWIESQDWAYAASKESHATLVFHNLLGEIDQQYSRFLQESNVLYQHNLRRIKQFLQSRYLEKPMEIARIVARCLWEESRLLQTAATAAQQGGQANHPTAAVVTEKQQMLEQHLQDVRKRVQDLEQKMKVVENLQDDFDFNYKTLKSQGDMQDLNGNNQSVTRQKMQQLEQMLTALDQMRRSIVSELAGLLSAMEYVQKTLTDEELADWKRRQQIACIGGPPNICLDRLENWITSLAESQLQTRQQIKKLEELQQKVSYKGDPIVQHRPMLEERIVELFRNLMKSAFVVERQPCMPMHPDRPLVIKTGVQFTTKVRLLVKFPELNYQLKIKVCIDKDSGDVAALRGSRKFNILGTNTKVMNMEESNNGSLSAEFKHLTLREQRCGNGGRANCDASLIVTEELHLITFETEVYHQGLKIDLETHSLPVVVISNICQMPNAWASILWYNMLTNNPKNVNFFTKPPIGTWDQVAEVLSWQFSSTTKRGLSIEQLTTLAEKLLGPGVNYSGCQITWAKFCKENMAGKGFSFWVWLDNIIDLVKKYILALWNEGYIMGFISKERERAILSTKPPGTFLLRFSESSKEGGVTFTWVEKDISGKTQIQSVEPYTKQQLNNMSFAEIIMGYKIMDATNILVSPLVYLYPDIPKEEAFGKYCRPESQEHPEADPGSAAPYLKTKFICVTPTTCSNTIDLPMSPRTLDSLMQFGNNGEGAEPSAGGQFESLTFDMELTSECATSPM
readoutName: concentration at which pStat3 was completely inhibited (µM)

{"compound": "C[C@H](CCC(N)=O)NC(=O)[C@@H]1Cc2cccc3c2N1C(=O)[C@@H](NC(=O)/C=C/c1ccc(C(F)(F)P(=O)(OCOC(=O)C(C)(C)C)OCOC(=O)C(C)(C)C)cc1)CC3 [compound 33]", "endpointResult": 0.5}
{"compound": "CCCC[C@H](NC(=O)/C=C(\\C)c1ccc(C(F)(F)P(=O)(OCOC(=O)C(C)(C)C)OCOC(=O)C(C)(C)C)cc1)C(=O)N1C[C@H]2C[C@H]2[C@H]1C(=O)N[C@@H](CCC(N)=O)C(C)OCc1ccccc1 (some centres unmarked) [compound 35]", "endpointResult": 0.5}
{"compound": "C/C(=C\\C(=O)N[C@H]1CCc2cccc3c2N(C1=O)[C@H](C(=O)N[C@H](C)CCC(N)=O)C3)c1ccc(C(F)(F)P(=O)(OCOC(=O)C(C)(C)C)OCOC(=O)C(C)(C)C)cc1 [compound 34, βMF2Pm(POM2)Cinn-Haic-Apa]", "endpointResult": 0.5}

(P) CCCC[C@H](NC(=O)/C=C(\C)c1ccc(C(F)(F)P(=O)(OCOC(=O)C(C)(C)C)OCOC(=O)C(C)(C)C)cc1)C(=O)N1C[C@H]2C[C@H]2[C@H]1C(=O)N[C@H](C)CCC(N)=O [compound 37]
(Q) CCCC[C@H](NC(=O)/C=C(\C)c1ccc(C(F)(F)P(=O)(OCOC(=O)C(C)(C)C)OCOC(=O)C(C)(C)C)cc1)C(=O)N1CC2CC2C1C(=O)NCCNC(N)=O (some centres unmarked) [compound 39]
Enquiry: Lowest concentration at which pStat3 was completely inhibited? choose P or Q Indicate your choice by writing its label.
Return: P
